We begin with a simple list: items and their reported pEC50.
target: TLR7 (Homo sapiens, UniProt Q9NYK1); construct: human HEK-Blue cells co-expressing a TLR7 or TLR8 gene; assay: In vitro human TLR7 binding reporter assay (HEK-Blue, NF-kB/AP1-inducible SEAP); assay type: cell-based; conditions: activity range, read-out: TLR7 Agonist EC50
Sequence (Q9NYK1 27-1049): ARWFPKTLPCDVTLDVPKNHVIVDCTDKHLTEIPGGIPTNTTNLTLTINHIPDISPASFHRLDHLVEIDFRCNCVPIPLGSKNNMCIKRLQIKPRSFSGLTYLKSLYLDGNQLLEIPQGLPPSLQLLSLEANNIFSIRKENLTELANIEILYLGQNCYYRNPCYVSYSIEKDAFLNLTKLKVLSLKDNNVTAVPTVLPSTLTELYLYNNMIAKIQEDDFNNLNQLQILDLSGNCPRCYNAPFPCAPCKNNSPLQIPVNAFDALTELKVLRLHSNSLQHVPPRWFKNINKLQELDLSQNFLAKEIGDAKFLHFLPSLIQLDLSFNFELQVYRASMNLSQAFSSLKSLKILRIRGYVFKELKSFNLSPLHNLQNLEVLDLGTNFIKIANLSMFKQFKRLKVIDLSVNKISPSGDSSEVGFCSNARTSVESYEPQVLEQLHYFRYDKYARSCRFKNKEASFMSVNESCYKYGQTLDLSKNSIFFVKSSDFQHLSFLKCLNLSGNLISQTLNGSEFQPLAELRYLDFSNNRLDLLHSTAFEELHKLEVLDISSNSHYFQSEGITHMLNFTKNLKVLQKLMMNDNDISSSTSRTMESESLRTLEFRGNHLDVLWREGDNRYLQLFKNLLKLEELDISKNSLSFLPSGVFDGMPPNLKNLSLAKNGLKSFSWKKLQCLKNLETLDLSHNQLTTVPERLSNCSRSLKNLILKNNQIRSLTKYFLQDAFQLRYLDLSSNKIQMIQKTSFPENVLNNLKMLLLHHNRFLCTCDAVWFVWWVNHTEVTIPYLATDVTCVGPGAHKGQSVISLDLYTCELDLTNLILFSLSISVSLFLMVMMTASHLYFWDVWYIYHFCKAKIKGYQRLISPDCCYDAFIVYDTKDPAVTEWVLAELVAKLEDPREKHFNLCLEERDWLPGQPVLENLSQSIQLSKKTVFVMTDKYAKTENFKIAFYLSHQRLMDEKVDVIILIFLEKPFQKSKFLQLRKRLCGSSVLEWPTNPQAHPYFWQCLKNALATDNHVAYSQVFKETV
pEC50: −log10 of the molar value. Structures can show the parent of a compound that is named as a salt.
reported metric: pEC50

In [3]: df
Out[3]:
                                   compound  reported_measurement
0  Nc1nc2cc(-c3cc[nH]n3)ccc2c2n[nH]cc12 [Example 457]                < 4.00
1  NC(=O)CCn1cc2c(N)nc3cc(-c4cc[nH]n4)ccc3c2n1 [Example 462]                < 4.00
2  CC(CO)n1cc2c(n1)c(N)nc1cc(-c3ccn[nH]3)ccc12 (stereo not drawn) [Example 453]                < 4.00
3  CN(C)C(=O)Cn1cc2c(N)nc3cc(-c4cc[nH]n4)ccc3c2n1 [Example 458]                < 4.00
4  Nc1nc2cc(-c3cc[nH]n3)ccc2c2cn(CC(=O)N3CC(F)C3)nc12 [Example 543]                < 4.00
5  CCS(=O)(=O)CCn1cc2c(n1)c(N)nc1cc(-c3cc[nH]n3)ccc12 [Example 526]                < 4.00
6  CC(CC(=O)NCCO)n1cc2c(N)nc3cc(-c4cc[nH]n4)ccc3c2n1 (stereo not drawn) [Example 620]                < 4.00
7  Nc1nc2cc(-c3cc[nH]n3)ccc2c2c1cnn2CCN1CC(F)(F)C1 [Example 430]                < 4.00
8  CC(C)(CO)n1cc2c(N)nc3cc(-c4cc[nH]n4)ccc3c2n1 [Example 407, TFA]                < 4.00

###

test system: THP-1 cells; assay: Measurement of IL-1β production, hTRF protocol (second alternative procedure), THP-1 cells; assay type: cell-based, human; settings: Homo sapiens, THP-1, IL-1β production, human; read-out: NLRP3 hILIB EC50
pEC50: −log10 of the molar value.
reported metric: pEC50

                                   compound  reported_measurement
0  Nc1nc2cc(-c3cc[nH]n3)ccc2c2nn(C[C@H]3CCCO3)cc12 [Example 329]                  6.51
1  Nc1nc2cc(-c3cc[nH]n3)ccc2c2nn(CC3CC3(F)F)cc12 (stereo not drawn) [Example 386]                  6.68
2  Nc1nc2cc(-c3ccn[nH]3)ccc2c2nn(CCNC3CCC3)cc12 [Example 280]                  5.76
3  Nc1nc2cc(-c3cc[nH]n3)ccc2c2cn(CCNC(=O)c3cccc(F)n3)nc12 [Example 55]                  6.41
4  Nc1nc2cc(-c3cc[nH]n3)ccc2c2nn(CCN3CCCC3=O)cc12 [Example 383]                  5.86
5  Nc1nc2cc(-c3cc[nH]n3)ccc2c2cn(Cc3cccnc3)nc12 [Example 167]                  6.82
6  Nc1nc2cc(-c3cc[nH]n3)ccc2c2nn(CCOCC(F)(F)F)cc12 [Example 333]                  6.62
7  Nc1nc2cc(-c3cc[nH]n3)ccc2c2nn([C@H]3CC[C@@H](O)CC3)cc12 [Example 394]                  6.34
8  Nc1nc2cc(-n3cccn3)ccc2c2cn(CCN3CCCC3=O)nc12 [Example 11]                  5.68

###

target: TLR8 (Homo sapiens, UniProt Q9NR97); construct: human HEK-Blue cells co-expressing a TLR7 or TLR8 gene; assay: In vitro human TLR8 binding reporter assay (HEK-Blue, NF-kB/AP1-inducible SEAP); type: cell-based; conditions: activity range class, read-out: TLR8 Agonist EC50
Sequence (Q9NR97 27-1041): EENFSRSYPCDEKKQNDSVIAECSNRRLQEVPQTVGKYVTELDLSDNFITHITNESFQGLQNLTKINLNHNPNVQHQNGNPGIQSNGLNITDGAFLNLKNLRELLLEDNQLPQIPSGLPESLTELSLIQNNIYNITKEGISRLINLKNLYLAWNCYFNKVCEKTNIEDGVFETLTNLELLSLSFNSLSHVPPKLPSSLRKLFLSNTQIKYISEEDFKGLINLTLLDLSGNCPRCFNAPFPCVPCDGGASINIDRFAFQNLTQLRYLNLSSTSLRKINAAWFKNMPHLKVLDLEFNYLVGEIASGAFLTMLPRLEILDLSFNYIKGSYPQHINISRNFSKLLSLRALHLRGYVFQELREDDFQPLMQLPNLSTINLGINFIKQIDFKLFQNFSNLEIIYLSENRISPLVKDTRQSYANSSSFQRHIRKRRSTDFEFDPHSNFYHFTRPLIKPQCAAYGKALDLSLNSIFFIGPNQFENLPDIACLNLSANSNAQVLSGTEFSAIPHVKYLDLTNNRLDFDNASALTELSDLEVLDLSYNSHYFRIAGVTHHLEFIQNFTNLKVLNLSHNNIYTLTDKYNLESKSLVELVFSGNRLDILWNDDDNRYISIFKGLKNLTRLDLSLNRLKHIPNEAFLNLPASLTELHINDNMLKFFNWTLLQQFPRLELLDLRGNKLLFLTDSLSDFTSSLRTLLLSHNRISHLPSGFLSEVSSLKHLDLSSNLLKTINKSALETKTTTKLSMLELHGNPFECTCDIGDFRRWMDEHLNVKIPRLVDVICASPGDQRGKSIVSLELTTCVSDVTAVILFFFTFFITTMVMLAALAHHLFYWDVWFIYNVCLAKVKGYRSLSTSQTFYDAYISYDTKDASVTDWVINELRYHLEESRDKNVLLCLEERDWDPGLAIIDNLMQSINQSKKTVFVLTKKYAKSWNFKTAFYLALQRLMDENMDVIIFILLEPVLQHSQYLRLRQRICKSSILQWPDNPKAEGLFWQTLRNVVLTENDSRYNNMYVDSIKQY
pEC50: −log10 of the molar value.
Recorded pEC50, one value per entry.
reported metric: pEC50

>>> print(df.to_string())
                  compound_structure_string                       assayed_system  reported_measurement
0  Nc1nc2cc(-c3cc[nH]n3)ccc2c2cn(CCc3ccccn3)nc12  TLR8 (Homo sapiens, UniProt Q9NR97)                < 4.00
1   Nc1nc2cc(-c3cc[nH]n3)ccc2c2c1cnn2CC(F)F  TLR8 (Homo sapiens, UniProt Q9NR97)                < 4.00
2  Nc1nc2cc(-n3cccn3)ccc2c2cn(CCN3CCOCC3)nc12  TLR8 (Homo sapiens, UniProt Q9NR97)                < 4.00
3  CC[C@H](O)Cn1cc2c(N)nc3cc(-c4cc[nH]n4)ccc3c2n1  TLR8 (Homo sapiens, UniProt Q9NR97)                < 4.00
4    CCCn1ncc2c(N)nc3cc(-c4cc[nH]n4)ccc3c21  TLR8 (Homo sapiens, UniProt Q9NR97)                < 4.00

###

Reported EC50 values are given for each entry in this list.
Biological target: TLR7 (Homo sapiens, UniProt Q9NYK1)
Construct: human HEK-Blue cells co-expressing a TLR7 or TLR8 gene
Experiment: In vitro human TLR7 binding reporter assay (HEK-Blue, NF-kB/AP1-inducible SEAP)
Assay type: cell-based
Details: activity range class, read-out: TLR7 Agonist EC50
Description: In Vitro Human TLR7 and TLR8 Binding Reporter Assays Logarithmically-growing human HEK-Blue cells co-expressing a TLR7 or TLR8 gene and a NF-kB/AP1-inducible SEAP (secreted embryonic alkaline phosphatase; Invivogen, San Diego, CA) reporter gene are added to individual wells of a 384-well plate (15,000 cells per 20 μL per well) and maintained for 24 h at 37° C., 5% CO2. […] All EC50 values (half-maximal effective concentration) are determined using proprietary data analysis software. […]
reported metric: EC50

>>> print(df.to_string())
                                    compound  reported_measurement
 0  Cc1ccccc1CNCCn1cc2c(n1)c(N)nc1cc(-c3cc[nH]n3)ccc12 [Example 105]          20 to 100 µM
 1  Nc1nc2cc(-c3cc[nH]n3)ccc2c2cn(CCNC(=O)c3csc(-c4ccncc4)n3)nc12 [Example 86]              > 100 µM
 2  Nc1nc2cc(-c3cc[nH]n3)ccc2c2cn(CC(=O)Nc3ccccc3F)nc12 [Example 164]              > 100 µM
 3  Nc1nc2cc(-c3cc[nH]n3)ccc2c2c1cnn2CC(O)CO (stereo not drawn) [Example 235]              > 100 µM
 4  Nc1nc2cc(-c3cc[nH]n3)ccc2c2nn(C3CCC(O)C3)cc12 (single isomer, unassigned) [Example 342]              > 100 µM
 5  Nc1nc2cc(-c3cc[nH]n3)ccc2c2cn(CCCOc3cccc(F)c3)nc12 [Example 5]              > 100 µM
 6  CCN1CCCC1Cn1cc2c(N)nc3cc(-c4ccn[nH]4)ccc3c2n1 (stereo not drawn) [Example 274]              > 100 µM
 7  CC(C)C(=O)NCCn1cc2c(n1)c(N)nc1cc(-c3cc[nH]n3)ccc12 [Example 34]          20 to 100 µM
 8  CC(C)OCC(O)Cn1cc2c(N)nc3cc(-c4cc[nH]n4)ccc3c2n1 (stereo not drawn) [Example 371]              > 100 µM
 9  Nc1nc2cc(-c3ccn[nH]3)ccc2c2oc(CCCO)nc12 [Example 147]              > 100 µM
10  Nc1nc2cc(-c3cc[nH]n3)ccc2c2cn(CCNC(=O)c3ccncc3)nc12 [Example 37]              > 100 µM
11  Nc1nc2cc(-c3cc[nH]n3)ccc2c2cn(CCN3Cc4ccccc4C3=O)nc12 [Example 102]          20 to 100 µM
12  N#CC[C@H](O)Cn1cc2c(N)nc3cc(-c4cc[nH]n4)ccc3c2n1 [Example 380]              > 100 µM
13  CCCn1cc2c(N)nc3cc(-c4cc[nH]n4)ccc3c2n1 [Example 220]              > 100 µM
14  Nc1nc2cc(-c3cc[nH]n3)ccc2c2nn(C[C@H]3CCCO3)cc12 [Example 329]              > 100 µM
15  Nc1nc2cc(-c3cc[nH]n3)ccc2c2nn(C[C@@H]3CCCO3)cc12 [Example 330]              > 100 µM
16  Nc1nc2cc(-c3cc[nH]n3)ccc2c2cn(CCNC(=O)[C@H]3CCCO3)nc12 [Example 177]              > 100 µM
17  Nc1nc2cc(-c3cc[nH]n3)ccc2c2cn(CCNC(=O)c3cocn3)nc12 [Example 44]              > 100 µM
18  Cc1nc(Cn2cc3c(n2)c(N)nc2cc(-c4cc[nH]n4)ccc23)no1 [Example 174]            1 to 20 µM
19  Nc1nc2cc(-c3cc[nH]n3)ccc2c2cn(CCNC(=O)c3ncccn3)nc12 [Example 70]              > 100 µM
20  Nc1nc2cc(-c3cc[nH]n3)ccc2c2cn(CCCOc3ccc(F)cc3)nc12 [Example 6]              > 100 µM
21  Nc1nc2cc(-c3ccn[nH]3)ccc2c2nn(CCN3CCOCC3)cc12 [Example 260]              > 100 µM
22  Nc1nc2cc(-c3cc[nH]n3)ccc2c2cn(CCCOc3ccccn3)nc12 [Example 3]              > 100 µM
23  Nc1nc2cc(-c3cc[nH]n3)ccc2c2nn([C@H]3CC[C@@H](O)CC3)cc12 [Example 394]              > 100 µM
24  Nc1nc2cc(-c3cc[nH]n3)ccc2c2cn(CCNC(=O)c3cccc(F)n3)nc12 [Example 55]          20 to 100 µM
25  CCC(CO)Cn1cc2c(N)nc3cc(-c4cc[nH]n4)ccc3c2n1 (stereo not drawn) [Example 356]              > 100 µM
26  Nc1nc2cc(-c3ccn[nH]3)ccc2c2sc(CCNC(=O)C3CCO3)nc12 (stereo not drawn) [Example 137]              > 100 µM
27  CC(C)(C)OCC(O)Cn1cc2c(N)nc3cc(-c4cc[nH]n4)ccc3c2n1 (stereo not drawn) [Example 375]              > 100 µM
28  Nc1nc2cc(-c3cc[nH]n3)ccc2c2cn(CCNC(=O)c3cscn3)nc12 [Example 95]              > 100 µM
29  COCC(O)Cn1ncc2c(N)nc3cc(-c4cc[nH]n4)ccc3c21 (stereo not drawn) [Example 306]              > 100 µM

Values compiled from patent US12037344B2.
